Attribution: PubChem BioAssay AID1159580

- Assay Details: chemical genetic growth profiling, strain panel (AID 1159580);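 also: tested at 20 µM; growth read once vehicle control cultures reached saturation at 30 °C; lower values mean less growth of the strain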
- Condition Summary: S. cerevisiae deletion strains, growth OD, locus YKL190W, strain CNB1
In all, about 5,500 compounds went through this assay and about 2,000 (36%) were called active. Another 18% or so got no clear call; they are omitted. Rule as the data show it: active = normalized growth mostly below about 0.91 (no sharp cut-off); inconclusive = no clear call, values can overlap the other calls; inactive = mostly above about 0.92. This is one part of the list.
Field 'call' accepts TRUE (active), FALSE (inactive)

Per the assay record, what outcome was assigned to C/C1=C\CCC(=O)C2CC(C)(C)C2CC1 (stereo not drawn) ?
FALSE

Per the assay record, what outcome was assigned to C[C@@H]1C(=O)OC2[C@H](O)C34[C@@H]5OC(=O)[C@@]3(O[C@@H]3OC(=O)[C@H](O)[C@@]34[C@H](C(C)(C)C)[C@H]5O)[C@]21O (stereo partly drawn) ?
FALSE

Per the assay record, what outcome was assigned to O=C(O)CN1C(=O)c2cccc3cccc(c23)C1=O ?
FALSE

Per the assay record, what outcome was assigned to COc1ccccc1N=C(N)SCc1ccccc1 ?
FALSE

Per the assay record, what outcome was assigned to Cc1cccc2c1N(C(=S)Nc1ccccc1Cl)CCC2 ?
TRUE

Per the assay record, what outcome was assigned to O=C(O)c1ccccc1-c1c2cc(Br)c(=O)cc-2oc2[c]([Hg])c(O)c(Br)cc12 ?
TRUE

Per the assay record, what outcome was assigned to N#C/C(=C\c1ccc(Oc2ccccc2)nc1)S(=O)(=O)c1ccccc1 ?
FALSE

Per the assay record, what outcome was assigned to C=C1C(=O)O[C@@H]2C3O[C@]3(C)CC/C=C(\C)CC[C@@H]12 (stereo partly drawn) ?
TRUE

Per the assay record, what outcome was assigned to CO/N=C(\C(=O)N[C@@H]1C(=O)N2C(C(=O)O)=C(COC(C)=O)CS[C@H]12)c1csc(N)n1 ?
FALSE

Per the assay record, what outcome was assigned to CC1C[C@H]2CC(=O)[C@H]3CCCN4CCC[C@H]2[C@]34C1 (stereo partly drawn) ?
FALSE

Per the assay record, what outcome was assigned to CC1(C)O[C@@H]2CC3C4CCC5=CC(=O)CCC5(C)C4(F)C(O)CC3(C)[C@]2(C(=O)CCl)O1 (stereo partly drawn) ?
FALSE

Per the assay record, what outcome was assigned to Cn1c(=O)c2[nH]cnc2n(C)c1=O ?
FALSE

Per the assay record, what outcome was assigned to CC(C)NCC(O)c1cc(O)cc(O)c1 (stereo not drawn) ?
FALSE

Per the assay record, what outcome was assigned to CCCCN1CCCCC1C(=O)Nc1c(C)cccc1C (stereo not drawn) ?
FALSE

Per the assay record, what outcome was assigned to CC(C)[C@@H]1CC[C@@H](C)C[C@H]1O ?
FALSE

Per the assay record, what outcome was assigned to CO/N=C(\C(=O)NC1C(=O)N2C(C(=O)O)=C(COC(N)=O)CSC12)c1ccco1 (stereo not drawn) ?
TRUE

Per the assay record, what outcome was assigned to Cc1ccc(CC(=O)O)cc1 ?
FALSE

Per the assay record, what outcome was assigned to O=C(O)CN(CC(=O)O)Cc1cc2c(-c3ccccc3C(=O)O)c3cc(CN(CC(=O)O)CC(=O)O)c(=O)cc-3oc2cc1O ?
FALSE

Per the assay record, what outcome was assigned to CC(=O)CC(=O)Nc1ccccc1Cl ?
FALSE

Per the assay record, what outcome was assigned to CCCNC1CCc2nc(N)sc2C1 (stereo not drawn) ?
FALSE

Per the assay record, what outcome was assigned to CCCCNc1ccc(C(=O)OCCN(C)C)cc1 ?
FALSE

Per the assay record, what outcome was assigned to O=C1NC(=O)C(=O)C(=O)N1 ?
FALSE

Per the assay record, what outcome was assigned to O=C(O)c1cc2cc(Cc3cccnc3)ccc2o1 ?
FALSE
